Experiment: A quantitative high throughput screen for small molecules that induce DNA re-replication in MCF 10a normal breast cells. Further: nearly all actives have a fitted effect of over 50% in size.
Details: MCF 10A DNA re-replication, Hoechst nuclear intensity, 48 h; series mostly up to 46.1 µM
Source text: H Molecular Libraries Probe Production Network [MLPCN] NIH Chemical Genomics Center [NCGC] Assay Provider: Melvin DePamphilis, NICHD, NIH Eukaryotic cells normally restrict genome duplication to once per cell division. […] To identify compounds that induce re-replication in normal cells, an image-based assay was used to measure DNA content of nuclei, as detected by the fluorescent DNA binding dye, Hoechst. […]
Out of some 350,000 compounds screened, about 9,900 (2.8%) were called active. Inconclusive results (about 15%) are left out. The call rests on the fitted dose curve; in most records, active means well fitted activation curve with a large enough effect; inconclusive means small, poorly fitted or top-dose-only effect; inactive means no such curve, though single readings can be large or run the other way. This excerpt belongs to a sample that is enriched for actives.
Labels: y (active), n (inactive)

>  <compound>
Cc1nn(-c2ncccn2)c2c1C(=O)CC(C)(C)C2Br (stereo unspecified)

>  <assigned category>
n

$$$$
>  <compound>
NC(N)=N/N=C/c1ccc(Cl)c([N+](=O)[O-])c1

>  <assigned category>
n

$$$$
>  <compound>
CCOC(=O)C(=CNc1cccc(C)n1)C(=O)OCC

>  <assigned category>
n

$$$$
>  <compound>
C=CC[C@@H](CC(=O)N[C@@H](CO)Cc1ccccc1)C(=O)N[C@H](COC(=O)[C@H](CC=C)CC(=O)OC(C)(C)C)Cc1ccccc1

>  <assigned category>
n

$$$$
>  <compound>
O=C(Nc1ccncc1)c1ccc(Cl)c([N+](=O)[O-])c1

>  <assigned category>
n

$$$$
>  <compound>
COc1ccc(Cn2cc(CN3CCS(=O)(=O)N(Cc4ccc(-c5cccc(Cl)c5)cc4)C(C)C3=O)nn2)cc1 (stereo unspecified)

>  <assigned category>
n

$$$$
>  <compound>
Cc1ccc(CC(=O)Nc2ccc(S(=O)(=O)N3CCOCC3)cc2)cc1C

>  <assigned category>
n

$$$$
>  <compound>
CC(=O)c1c(C)[nH]c(C(=O)COC(=O)c2cccs2)c1C

>  <assigned category>
n

$$$$
>  <compound>
COc1cnn(-c2ccc([N+](=O)[O-])cc2)c(=O)c1Cl

>  <assigned category>
y

$$$$
>  <compound>
Cc1ccc(OCC(=O)N2CCN(S(=O)(=O)c3ccc(Cl)s3)CC2)cc1C

>  <assigned category>
n

$$$$
>  <compound>
O=C(O)C(CCc1ccccn1)c1ccccc1 (stereo unspecified)

>  <assigned category>
n

$$$$
>  <compound>
Cc1ccc(S(=O)(=O)N2CCN(C(=O)COC(=O)CNC(=O)c3ccc(C(C)(C)C)cc3)CC2)c(C)c1

>  <assigned category>
n

$$$$
>  <compound>
O=c1c2ccccc2ccc2ccc(P(=O)(O)O)cc12

>  <assigned category>
n

$$$$
>  <compound>
CC(=O)NCC(=O)NC1CCCc2c1cnn2-c1ccccc1F (stereo unspecified)

>  <assigned category>
n

$$$$
>  <compound>
NC(=O)c1ncn([C@@H]2O[C@H](CN=C3NS(=O)(=O)c4ccccc43)[C@@H](O)[C@H]2O)n1

>  <assigned category>
n

$$$$
>  <compound>
O=C(Nc1cccnc1)c1ccc(Cl)c([N+](=O)[O-])c1

>  <assigned category>
y

$$$$
>  <compound>
O=C(Nc1ccccc1)c1nnsc1S(=O)(=O)c1ccc(Cl)cc1

>  <assigned category>
y

$$$$
>  <compound>
O=C(O)CCC(=O)N(Cc1ccccc1)Cc1ccccc1

>  <assigned category>
y

$$$$
>  <compound>
CC(=O)Nc1cc(C(=O)O)ccc1S(=O)(=O)c1ccc(Cl)cc1

>  <assigned category>
n

$$$$
>  <compound>
CN1C(c2ccc(F)cc2)=CS/C1=C(/C#N)c1nnc2n1-c1ccccc1SC2

>  <assigned category>
n

$$$$
>  <compound>
CC(C)Cn1c(SCC(=O)Nc2ccc(Cl)cc2F)nc(O)cc1=O

>  <assigned category>
n

$$$$
